Tested on: RARg homodimer (NR concentration 270 nM)
Experiment: PBM binding z-score (relative to random genomic background probes); higher = stronger binding; sequences stand for … in GC…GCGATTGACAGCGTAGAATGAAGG

Chain sequence | PBM binding z-score
CGCACTAGGTCATCCAGGACAGTGAATACATTGA | 4.51
ATCGAAAGGTCGAAGGTGAGCATACCCACCCGAA | 3.86
CCTAGCAGGCCAATCTAGGTCACTCAAGGCTTGA | 1.85
AGTCAAAGTTCAGGACGAGGTAACGTTAAGCACG | 4.82
ATTTGTAGGTTACATCCGGGTCATTCAGGCTATG | 2.41
ATATGTAGGTTGGGGTCATTCAGAAAGTAGGGAA | 3.36
CCTAGTGGGCCAAGGTCATTGATCAGTCAAAGCA | 3.3
CAAACAAGGTCAAAGGTCAAAGTCGAGCCAACCA | 8.75
CGTCAAAGTCCAAGGTAACGTAACAGAAAGCAGC | 1.1
ACTTACGGGTCTACGAGGTTATAGCACGCGTATA | 0.586
CGAACGAGGTCATTGACAGGACAGTGAATAGTAA | 6.33
CCAGACAGGTGAGAAGGTAACTCAGCCTCGATTA | 0.652
ACTAGTTGGTCAGCTGAGGTCACACCCAATTCGG | 3.86
CAAAATAGGTCACAGAGGTCAAAGTCCGTGCGTA | 8.18
CGTCCAAGGTCATATGAGGTCAGTGAAGACAGAT | 7.55
GCTGCTAGGTCAACTGATGGTCAACTAAAGCTCG | 5.66
CACACTAGGTCACAGAGGTCAAAGTCCGTGCGTA | 8.04
TGTCAAAGGTCAAAGGTAACGTAAGTATCCACAC | 8.8
TCTAGTCGGTCAAAGGTCACACACTCGAAATGCG | 7.3
ATATGTAGGTTACATCCGGGTCATCCAGGCTATG | 2.1
GCTGCTAGTTCAACTGATGGTCAGCTAAAGCTCG | 1.07
CGTCAAAGTTCAACTGAGGTAACGTAAAGCACGC | 6.84
ATCGAAAGGTCGAAGGTGCGTATACCCACCCGAA | 3.91
CCTCGGAGGACAACAGGAGGTCATAGCTGCCAGA | 3.78
CAAACAAGGTCACCGGAAGGTCAAAGTCCGCATG | 8.72
CCTAGTTGTTCAGGAGGTCACACACCGGATATGA | 4.35
GGAACGAGGGCATTCGAGTTCATAGCATGGCGAT | 2.58
ATATGTAGGTTATCGGGTCATACAGTTTGCGCAT | 2.84
GATATAGGGTCAGCTAGAGGCCAGAGTATGGAAA | 5.11
CGTCAAAGGTCATAGGAGGTCAGTGAAGACAGAT | 8.6
ATCGAAAGGTCGTGAGGTAAGTATACAGAAAGGC | 3.93
CCGAGTAGGTTACGAGGGGTCATTCAGTGCGAAT | 3.76
TCTGCTAGGTCAACGATGGTCAGTTAATCTGCTA | 4.95
GCTGCTAGGTCAACTGATGGCCAGCTAAAGCTCG | 5.33
ATATGTAGGTTACCTGGGGTCATTCAGACTAGGC | 3.44
AATAAAGGGTCATCGTAGGCCAGAGTACGCACAG | 6.51
GCTAGTTGGTCAGTAAAATGTCACACACCGGTCG | 0.697
TACCCTAGGTCATTCAGGGGCCAGTATAGAAAGC | 5.02
GCATATAGGTAATACAAGGTCAAAGTCCGATTGT | 2.81
CGTCCAAGGTCATAGGAGGTCAATGAAGACAGAT | 7.28
AGTCAAAGTTCATCTAGGTAACATAAGATATGCT | 6.1
TTACCAAGGTGAACGGTCGTTGATGCACGCCTTG | 0.84
CCGACTGGGGCAAGGTCACCATAACGCACAGCCA | 4.45
CGAACTAGGTCGAGGACAGTGAATCTCCGCACGC | 1.36
TGTCAATGTTCAAAGGTAACGTAAGTATCCACAC | 0.759
CTCGAAAGGTCATGCTCAGGTGAGTATACCAAAC | 8.47
CGAACTAGGTCAAAGGACATTGAAAGGCGACGTA | 4.34
